- Tested on: OVCAR-8 ovarian
- Measurement protocol: NCI tumour cell line growth inhibition, 48 h; in the data active = GI50 below about 0.43 µM; inactive = the rest
Labels: Yes = active, No = inactive

# Compound, Class
records = [
    ("c1ccc(-n2nnnc2-c2cccc3ccccc23)cc1", "No"),
    ("O=Nc1ccc2ccccc2c1O", "No"),
    ("CC(=O)O/N=C1/C(c2c(O)[nH]c3cc(Br)ccc23)=Nc2ccccc21", "No"),
    ("CN(C)C(=O)c1cc2cnc(Nc3ccc(-c4csc5c(=O)cc(N6CCOCC6)oc45)cc3)nc2n1C1CCCC1", "Yes"),
    ("Cc1ccc(SC2=CC(=O)c3nc4ccccc4c4ccnc2c34)cc1", "No"),
    ("C=CCC1(O)c2cccc(NCCO)c2C(=O)c2c(NCCO)cccc21", "No"),
    ("CO[C@@H]1/C=C(C)/C=C/[C@@H](C)/C=C(\\C)C(=O)OC(/C(C)=C/C=C(\\C)CNC(=O)[C@H](CO)NC=O)[C@@H](C)/C=C/C=C/[C@H](OC)CC/C=C(C)/C=C/C1 (some centres undefined)", "Yes"),
    ("COc1cc(/C=C2\\CN(C)C/C(=C\\c3cc(CN4CCCCC4)c(O)c(OC)c3)C2=O)cc(CN2CCCCC2)c1O", "No"),
    ("S=C1Nc2ccc(Cl)cc2C2(c3ccccc3)N3CCN=C3NN12 (centres undefined)", "No"),
    ("COc1ccc(C(=O)c2cc3c(OC)c(OC)c(OC)cc3[nH]2)cc1", "No"),
    ("NC1=NC(c2ccc(Cl)cc2)C2=C(N1)/C(=C/c1ccc(Cl)cc1)CCC2 (centres undefined)", "No"),
    ("c1cn2cc(-c3ccc4cn[nH]c4c3)nc(Nc3ccc(N4CCOCC4)cc3)c2n1", "No"),
    ("COc1ccc2nc3cc(Cl)ccc3c(NCCCNCCC(C)O)c2c1 (centres undefined)", "Yes"),
    ("CCOC(=O)/C=C/C(C(=O)/C=C/c1ccc(O)c(OC)c1)=C(O)\\C=C\\c1ccc(O)c(OC)c1", "No"),
    ("C#Cc1c(C(N)=O)ncn1C1OC(COP(=O)(OCc2ccc([N+](=O)[O-])o2)N(C)CCCCCl)C(O)C1O (centres undefined)", "No"),
    ("Cc1cc(C)c(O)c(CN(C)Cc2cc(Cl)cc(Cl)c2O)c1", "No"),
    ("CN1CCN(Cc2ccc(NC(=O)c3ccc(C#Cc4c(N)ncc5ccc(F)cc45)cc3)cc2C(F)(F)F)CC1", "No"),
    ("COc1ccc2c(c1)C(=O)/C(=C/c1ncc([N+](=O)[O-])n1C)O2", "Yes"),
    ("O=C(O)c1ccc(N/C=C2\\C(=O)c3ccccc3OC2O)cc1O (centres undefined)", "No"),
]
